Taken from PubChem BioAssay (Tox21).

# protocol: qHTS assay for identifying genotoxic compounds that show differential cytotoxicity against isogenic chicken DT40 cell lines with known DNA damage response pathways - Rad54/Ku70 mutant cell line (AID 743015); also: nearly all actives have a fitted effect of over 60% in size
# recorded_conditions: DT40 Rad54/Ku70 mutant viability, CellTiter-Glo, 40 h; series mostly up to 66.8 µM
Results filed as inconclusive are left out. Activity calls are given as the source filed them. Calls follow the shape of the dose curve; as a rule, active = well fitted cell-killing curve with a large enough effect in the repeat runs; inconclusive = weak or mixed curves; inactive = no such curve, though single readings can be large or run the other way.
Labels: Y for active, N for inactive

[[record]]
smi = "CCCC(=O)O[C@]1(C(=O)COC(C)=O)CC[C@H]2[C@@H]3C[C@H](F)C4=CC(=O)C=C[C@]4(C)[C@@]3(F)[C@@H](O)C[C@@]21C"
category_label = "Y"

[[record]]
smi = "CC[C@@]1(O)C(=O)OCc2c1cc1n(c2=O)Cc2cc3c([N+](=O)[O-])cccc3nc2-1"
category_label = "Y"

[[record]]
smi = "O=[N+]([O-])c1c(Cl)cccc1-c1c[nH]cc1Cl"
category_label = "Y"

[[record]]
smi = "CC1(C)S[C@@H]2[C@H](NC(=O)[C@H](NC(=O)N3CCN(S(C)(=O)=O)C3=O)c3ccccc3)C(=O)N2[C@H]1C(=O)O"
category_label = "N"


----------
# protocol: qHTS assay to identify small molecule antagonists of the thyroid receptor (TR) signaling pathway - cell viability counter screen (AID 743064); also: nearly all actives have a fitted effect of over 50% in size
# recorded_conditions: GH3.TRE-Luc viability, CellTiter-Fluor, 24 h; series mostly up to 70.3 µM
Inconclusive results are not listed. Calls of active or inactive are those of the source. Calls come from the whole dose curve; as a rule, active = well fitted cell-killing curve with a large enough effect in the repeat runs; inconclusive = weak or mixed curves, or effect the other way; inactive = no such curve, though single readings can be large or run the other way.
Labels: 1 for active, -1 for inactive

[[record]]
compound = "CCC[C@@H]1C[C@@H](C(=O)N[C@@H]([C@H]2O[C@H](SC)[C@H](O)[C@@H](O)[C@H]2O)[C@H](C)Cl)N(C)C1"
category_label = -1

[[record]]
compound = "c1ccc2c(c1)Sc1ccccc1N2CCN1CCCC1"
category_label = 1

[[record]]
compound = "CC(C)CCC[C@@H](C)[C@H]1CC(=O)C2=C3CC[C@H]4C[C@@H](O)CC[C@]4(C)[C@H]3CC[C@@]21C"
category_label = -1

[[record]]
compound = "CCCCC[C@H](O)/C=C/[C@H]1[C@H](O)CC(=O)[C@@H]1CCCCCCC(=O)O"
category_label = -1

[[record]]
compound = "CN[C@@H]1[C@H](O[C@H]2[C@H](O[C@H]3[C@H](O)[C@@H](O)[C@H](N=C(N)N)[C@@H](O)[C@@H]3N=C(N)N)O[C@@H](C)[C@]2(O)CO)O[C@@H](CO)[C@H](O)[C@H]1O"
category_label = -1

[[record]]
compound = "CC(C)(C)C1(O)CCN2CC3c4ccccc4CCc4cccc(c43)C2C1 (configuration not stated)"
category_label = 1

[[record]]
compound = "CS(=O)(=O)OCCCNCCCOS(C)(=O)=O"
category_label = -1

[[record]]
compound = "NC(=O)OC[C@@H]1[C@H](NC(=O)/C(=N\\OCC(=O)O)c2csc(N)n2)C(=O)N1S(=O)(=O)O"
category_label = -1

[[record]]
compound = "CN(C)C=Nc1c(I)cc(I)c(CCC(=O)O)c1I"
category_label = -1

[[record]]
compound = "NC(=O)Oc1ccc(Cc2ccccc2)cc1"
category_label = -1

[[record]]
compound = "O=c1oc2cc(O)ccc2s1"
category_label = -1

[[record]]
compound = "COc1cc2c(cc1OC)CC(=O)N(CCCN(C)C[C@H]1Cc3cc(OC)c(OC)cc31)CC2"
category_label = -1

[[record]]
compound = "NC(=O)c1ccc[n+]([C@@H]2O[C@H](COP(=O)([O-])OP(=O)(O)OC[C@H]3O[C@@H](n4cnc5c(N)ncnc54)[C@H](O)[C@@H]3O)[C@@H](O)[C@H]2O)c1"
category_label = -1

[[record]]
compound = "CCC(=O)NCCC1CCc2ccc3c(c21)CCO3 (configuration not stated)"
category_label = -1

[[record]]
compound = "O=C(Cc1cccs1)N[C@@H]1C(=O)N2C(C(=O)[O-])=C(C[n+]3ccccc3)CS[C@H]12"
category_label = -1

[[record]]
compound = "C#CCC(Cc1cnc2nc(N)nc(N)c2n1)c1ccc(C(=O)N[C@@H](CCC(=O)O)C(=O)O)cc1 (some centres not stated)"
category_label = -1

[[record]]
compound = "CN[C@@H]1[C@@H](O)[C@@H](O[C@@H]2[C@@H](O)[C@H](O[C@H]3O[C@H](CN)[C@@H](O)[C@H](O)[C@H]3O)[C@@H](N)C[C@H]2NC(=O)C(O)CN)OC[C@]1(C)O (some centres not stated)"
category_label = -1


----------
# protocol: qHTS assay to identify small molecule antagonists of the thyroid receptor (TR) signaling pathway (AID 743065); also: nearly all actives have a fitted effect of over 55% in size
# recorded_conditions: GH3.TRE-Luc, T3-stimulated luciferase inhibition, 23.5 h; series mostly up to 70.3 µM
Inconclusive results are not listed. Activity calls are given as the source filed them. Calls follow the shape of the dose curve; as a rule, active = well fitted inhibition curve with a large enough effect in the repeat runs; inconclusive = weak or mixed curves; inactive = no such curve, though single readings can be large or run the other way.
Labels: active, inactive

[[record]]
molecule = "CCC(=O)O[C@H]1CC[C@H]2[C@@H]3CCc4cc(O)ccc4[C@H]3CC[C@]12C"
category_label = "active"

[[record]]
molecule = "CCCc1nc(C(C)(C)O)c(C(=O)OCc2oc(=O)oc2C)n1Cc1ccc(-c2ccccc2-c2nn[nH]n2)cc1"
category_label = "inactive"

[[record]]
molecule = "O=C(Nc1ccc(Br)cc1)c1cc(Br)c(Br)s1"
category_label = "active"

[[record]]
molecule = "C=C1CC[C@H](O)CC1=C/C=C1\\CCC[C@]2(C)[C@@H]([C@H](C)CC[C@@H](O)C(C)(C)O)CC[C@@H]12"
category_label = "active"

[[record]]
molecule = "CC(C)(C)NC[C@H](O)COc1ccccc1C1CCCC1"
category_label = "active"

[[record]]
molecule = "CC(/C=C/C=C(\\C)C(=O)O[C@@H]1O[C@H](CO[C@@H]2O[C@H](CO)[C@@H](O)[C@H](O)[C@H]2O)[C@@H](O)[C@H](O)[C@H]1O)=C\\C=C\\C=C(C)\\C=C\\C=C(/C)C(=O)O[C@@H]1O[C@H](CO[C@@H]2O[C@H](CO)[C@@H](O)[C@H](O)[C@H]2O)[C@@H](O)[C@H](O)[C@H]1O"
category_label = "inactive"

[[record]]
molecule = "O=C(/C=C/c1cccc(F)c1)NC1CC1"
category_label = "inactive"

[[record]]
molecule = "O=C(O)c1cccc(/C=C2/C[C@@H]3[C@@H](/C=C/[C@@H](O)C4CCCCC4)[C@H](O)C[C@@H]3O2)c1"
category_label = "inactive"

[[record]]
molecule = "CC(C)[C@@H]1CC[C@@H](C)C[C@H]1OC(=O)c1ccccc1O"
category_label = "inactive"

[[record]]
molecule = "CC(C)C(=O)OCC(=O)[C@@]12O[C@H](C3CCCCC3)O[C@@H]1C[C@H]1[C@@H]3CCC4=CC(=O)C=C[C@]4(C)[C@H]3[C@@H](O)C[C@@]12C"
category_label = "active"

[[record]]
molecule = "CSc1nc2cc(Oc3cccc(Cl)c3Cl)c(Cl)cc2[nH]1"
category_label = "active"

[[record]]
molecule = "COc1ccc(CNCC(O)COc2ccc3[nH]c(=O)ccc3c2)cc1OC (configuration not stated)"
category_label = "inactive"

[[record]]
molecule = "OC1OC[C@@H](O)[C@H](O)[C@@H]1O (some centres not stated)"
category_label = "inactive"

[[record]]
molecule = "CCOc1ccc(N=C(C)Nc2ccc(OCC)cc2)cc1"
category_label = "inactive"

[[record]]
molecule = "CC(=O)OCC(=O)[C@@]12OC3(CCCC3)O[C@@H]1C[C@H]1[C@@H]3CCC4=CC(=O)C=C[C@]4(C)[C@@]3(F)[C@@H](O)C[C@@]12C"
category_label = "inactive"

[[record]]
molecule = "C/C(=C(\\CCOC(=O)c1ccccc1)SS/C(CCOC(=O)c1ccccc1)=C(/C)N(C=O)Cc1cnc(C)nc1N)N(C=O)Cc1cnc(C)nc1N"
category_label = "active"

[[record]]
molecule = "CC(C)CCCC(C)NC(C)C (configuration not stated)"
category_label = "inactive"


----------
# protocol: qHTS assay to identify small molecule antagonists of the estrogen receptor alpha (ER-alpha) signaling pathway - cell viability counter screen (AID 743074);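 also: HEK293 cells carrying ER-alpha-UAS-bla reporter stimulated with 17beta-estradiol; nearly all actives have a fitted effect of over 45% in size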; also: potency is read from the fitted curve at half-maximal effect
# recorded_conditions: ERalpha-bla HEK293 viability, CellTiter-Glo luminescence, 18 h; series mostly up to 69.4 µM
Results filed as inconclusive are left out. The source made the active and inactive calls. The call rests on the fitted dose curve.
property: Potency

[[record]]
compound = "CC1CC(OC(=O)C(O)c2ccccc2)CC(C)(C)C1 (centres undefined)"
property = "Potency"
experimental_result = "inactive"

[[record]]
compound = "O=[N+]([O-])c1ccc(Oc2ccc(N=C=S)cc2)cc1"
property = "Potency"
experimental_result = "inactive"

[[record]]
compound = "CC[C@@H](C(=O)O)[C@@H]1O[C@@H]([C@@H](C)[C@H](O)[C@H](C)C(=O)[C@H](CC)[C@H]2O[C@]3(C=C[C@@H](O)[C@]4(CC[C@@](C)([C@H]5CC[C@](O)(CC)[C@H](C)O5)O4)O3)[C@H](C)C[C@@H]2C)[C@@H](C)C[C@@H]1C"
property = "Potency"
experimental_result = "151 nM (active)"

[[record]]
compound = "CCCCCCCCCCCCCCCCCC[N+](C)(C)CCC[Si](OC)(OC)OC"
property = "Potency"
experimental_result = "inactive"

